Experiment: self-splicing fitness, log relative to wild type (ln ratio); higher = more splicing; Tetrahymena group I intron in knt gene, E. coli kanamycin selection, DiMSum; sequences stand for … in CUCUCU…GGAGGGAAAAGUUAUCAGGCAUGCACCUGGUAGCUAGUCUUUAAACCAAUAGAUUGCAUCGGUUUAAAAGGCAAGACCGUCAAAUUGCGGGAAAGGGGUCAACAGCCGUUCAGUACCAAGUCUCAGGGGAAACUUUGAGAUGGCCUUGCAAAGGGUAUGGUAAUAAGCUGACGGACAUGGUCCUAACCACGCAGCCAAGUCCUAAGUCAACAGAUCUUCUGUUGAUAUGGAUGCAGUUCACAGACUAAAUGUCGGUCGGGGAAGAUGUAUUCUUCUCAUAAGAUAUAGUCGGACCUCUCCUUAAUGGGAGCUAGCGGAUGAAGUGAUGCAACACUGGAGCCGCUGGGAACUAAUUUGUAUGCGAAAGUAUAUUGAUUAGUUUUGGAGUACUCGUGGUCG;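 further: selection with 25 µg/mL kanamycin versus none on LB agar overnight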
Conditions: 30 °C
Rule: y for self-splicing fitness (ln) not less than -3, n for anything less.

Check out these entries, answers already filled in.
AAAGAGCAAUAUUACGCACC :: y
CGGCAGCAAUAUUACGCUGA :: n
GCGCAGCAAUAUUACGCUUU :: y
GCAGAGCAAUAUUACGGCAC :: y
AAACAGCAAUAUUACGGGUU :: y
GGCGAGCAAUAUUACGCUUA :: y
AGUAAGCAAUAUUACGAGAG :: y
GGCAAGCAAUAUUACGUUCA :: y
UCUUAGCAAUAUUACGACAU :: n
CUAGAGCAAUAUUACGUAAG :: y

Given "GGCAAGCAAUAUUACGCUGU" , state whether its self-splicing fitness (ln) is at least -3. n

Given "AGCUAGCAAUAUUACGCAGA" , state whether its self-splicing fitness (ln) is at least -3. n

Given "UGUCAGCAAUAUUACGCAGU" , state whether its self-splicing fitness (ln) is at least -3. y

Given "AAAAAGCAAUAUUACGUCGG" , state whether its self-splicing fitness (ln) is at least -3. y

Given "GGUGAGCAAUAUUACGCUGU" , state whether its self-splicing fitness (ln) is at least -3. n

Given "UCGCAGCAAUAUUACGCGCU" , state whether its self-splicing fitness (ln) is at least -3. y

Given "GAUCAGCAAUAUUACGGUCU" , state whether its self-splicing fitness (ln) is at least -3. n

Given "CACAAGCAAUAUUACGAGUG" , state whether its self-splicing fitness (ln) is at least -3. n

Given "GUAUAGCAAUAUUACGAUCA" , state whether its self-splicing fitness (ln) is at least -3. y

----------
Assay: self-splicing fitness, log relative to wild type (ln ratio); higher = more splicing; Tetrahymena group I intron in knt gene, E. coli kanamycin selection, DiMSum; sequences stand for … in CUCUCU…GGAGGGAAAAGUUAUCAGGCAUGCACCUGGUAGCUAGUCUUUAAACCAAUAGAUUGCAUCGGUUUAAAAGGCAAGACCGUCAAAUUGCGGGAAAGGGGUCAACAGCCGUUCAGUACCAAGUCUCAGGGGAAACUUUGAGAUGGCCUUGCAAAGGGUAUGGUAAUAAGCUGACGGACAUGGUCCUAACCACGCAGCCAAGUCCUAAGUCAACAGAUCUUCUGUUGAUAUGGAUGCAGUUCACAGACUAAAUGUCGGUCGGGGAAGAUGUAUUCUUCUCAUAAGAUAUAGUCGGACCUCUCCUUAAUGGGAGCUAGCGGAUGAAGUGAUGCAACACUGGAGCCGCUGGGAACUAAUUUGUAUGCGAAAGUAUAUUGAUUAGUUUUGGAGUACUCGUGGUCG
Settings: 30 °C
Listed below: self-splicing fitness (ln) values for each entry.
Would you mind answering with just the numeric figure?

Here is how some sequences turned out for self-splicing fitness (ln).
GUUUAGCAAUAUUACGAGCC :: -3.21
ACCUAGCAAUAUUACGGACU :: -0.424
CAAUAGCAAUAUUACGAUGC :: -3.6
GACUAGCAAUAUUACGCGUA :: -0.78
ACUUAGCAAUAUUACGUACU :: -0.497

Looking up "GCUAAGCAAUAUUACGCGAG" , I see its self-splicing fitness (ln) listed as -2.6

Looking up "CGAAAGCAAUAUUACGCUUC" , I see its self-splicing fitness (ln) listed as -2.95

Looking up "CAUGAGCAAUAUUACGGAUU" , I see its self-splicing fitness (ln) listed as -3.76
